B1: OR4K15 (parent)
chain: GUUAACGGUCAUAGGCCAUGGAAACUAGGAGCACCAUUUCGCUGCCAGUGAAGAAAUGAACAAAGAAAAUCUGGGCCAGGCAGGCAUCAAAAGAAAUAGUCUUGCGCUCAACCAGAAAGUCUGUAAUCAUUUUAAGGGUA

# Variants of: B1
# Assay name: self-cleavage, relative activity (ratio to wild type); higher = more cleavage; in vitro, sequencing; the parent is a self-cleaving ribozyme
Where self-cleavage equals or exceeds 1, the correct label is class 1; where it does not, the label is class 0.

In plain terms: is recorded self-cleavage at least 1 for GUUAACGGUCAUAGGCCAUGGAAACUAGGAGCACCAUUUCGCUGCCAGUGAAGAAAUGAACAAAGAAAAUCUGGGCCAGGCAGGCAUCAAAAGAAAUAGUCUUGCGCUCCACCAGAAAGUCGGUAAUCAUUUUAAGGGUA [A110C U122G] ?
class 0

Evaluate GUUAACGGUCAUAGGCCAUGGAAACUAGGAGCACCAUUUCGCUGCCAGUCAAGAAAUGAACAAAGAAAAUCUGGGCCAGGCAGGCAUCAAAAGAAAUAGUCUUGCGCUCAACCAGGAAGUCUGUAAUCAUUUUAAGGGUA [G50C A116G] : self-cleavage at minimum 1?
class 0

Please check the record GUUAACGGUCAUAGGCCAUGGAAUCUAGGAGCACCAUUUCGCUGCCAGUGAAGAAAUGAACAAAGAAAAUCUGGGCCAGGCAGGCAUCAAAAGAAAUAGUCUUGCGCUCAACCAGAAAGUCUGUAAUAAUUUUAAGGGUA [A24U C128A] and state if its self-cleavage is at or above 1.
class 1

Is self-cleavage for GUUAACGGUCAUAGGCCAUGGAAACUAGGAGCACCAUUUCGUUGCCAGUGAAGAAAUGAACAAAGAAAAUCUGGGCCAGGCAGGCAUCAAAAGAAAUAGUCUUGCGCUCAACCAGAAAGUCUGUAAUCAUUUUAAGGGUA [C42U] at or above 1?
class 1

Kindly determine if self-cleavage recorded for GUUAACGGUCAUAGGCCACGGAAACUAGGAGCACCAUUUCGCUGCCAGUGAAGAAAUGAACAAGGAAAAUCUGGGCCAGGCAGGCAUCAAAAGAAAUAGUCUUGCGCUCAACCAGAAAGUCUGUAAUCAUUUUAAGGGUA [U19C A64G] is above or exactly 1.
class 1

// inclusive: self-cleavage at least 1? input: GUUAACGGUCAUAGGCCAUGGAAACUAGGAGCACCAUUUCGCCGCCAGUGAAGAAAUGAACAAAGAAAAUCUGGGCCAGGCAGGCAUCAAAAGAAAUAGUCUUGCGCUCAACCAGAAAGUCUGUAACCAUUUUAAGGGUA [U43C U127C]
class 0

Check if self-cleavage >= 1 (inclusive). Item: GUUAACGGUCAUAGGCCAUGGAAACUAGGAGCACCAUUUCGCCGCCAGUGAAGAAAUGAACAAAGAAAAUCUGGGCCAGGCAGGCAUCAAAAGAAAUAGUCUUGCGCUCAACCAGGAAGUCUGUAAUCAUUUUAAGGGUA [U43C A116G]
class 0

Reported self-cleavage at or above 1? GUUAACGGUCAUAGGCCAUGGAAACUAGGAGCACCAUUUCGCUGCCGGUGAAGAAAUGAACAAAGAAAAUCUGGGCCAGGCAGGCAUCAAAAGAAGUAGUCUUGCGCUCAACCAGAAAGUCUGUAAUCAUUUUAAGGGUA [A47G A96G]
class 1

Does the variant GUUAACGGUCAUAGGCCAUGGAAACUCGGAGCACCAUUUCGCUGCCAGUGAAGAAAUGAACAAAGAAAAUCUGGGCCAGGCAGGCAUCAAAAGAAAUAGUCUUGCGCUCAACCAGUAAGUCUGUAAUCAUUUUAAGGGUA [A27C A116U] have recorded self-cleavage that is 1 or more?
class 0

Assess whether reported self-cleavage for GUUAACGGUCAUAGGCCAUGGAAACUAGGAGCACCAUUUCGCUGCCAGUGAAGAAAUGAUCAAAGAAGAUCUGGGCCAGGCAGGCAUCAAAAGAAAUAGUCUUGCGCUCAACCAGAAAGUCUGUAAUCAUUUUAAGGGUA [A60U A68G] sits at 1 or higher.
class 1

API: above_or_equal(metric=self-cleavage, cutoff=1) for item GUUAACGGUCAUAGGCCAUGGAAACUAGGGGCACCAUUUCGCUGCCAGUGAAGAAAUGAACAAAGAAAAUCUGGGCCAGGCAGGCAUCAAAAGAAAUAGUCUUGCACUCAACCAGAAAGUCUGUAAUCAUUUUAAGGGUA [A30G G106A]
class 0

Confirm if self-cleavage reported for the variant GUUAACGGUCAUAGGCCAUGGAAACUAGGAGCACCAUUUCGCUGCCAGUGAAGAAAUGAACAAAGAAAAUCUGGGCCAGGCUGGCAUCAAAAGAAAUAGUCUUGCGCUCAACCAGAUAGUCUGUAAUCAUUUUAAGGGUA [A82U A117U] is 1 or above.
class 0

# check: self-cleavage of GUUAACGGUCAUAGGCCAUGGAAACUAGGAGCACCAUUUCGCUGCCAGUGAAGAAAUGAACAAAGAAAAUCUGGGCCAGGCGGGCAUCAAAAGAAAUAGUCUUGCGCUCAACCAGAAAGUCUGUAAUCAUUAUAAGGGUA [A82G U132A] is greater than or equal to 1
class 0

Does the reported self-cleavage for GCUAACGGUCAUAGGCCAUGGAAACUAGGAGCACCAUUUCGCUGCCAGUGAAGAAAUGAACAAAGAAAAUCUGGGCCAGGCAGGCAUCAAAAGAAAUAGUCUUGCGCUCAACCAGAAAGUCGGUAAUCAUUUUAAGGGUA [U2C U122G] fall at or above the 1 mark?
class 1

Entry GUUAACGGUCAUAGGCCAUGGAAACUAGGAGCACCAUUUCGCCGCCAGUGAAGAAAUGAACAAAGAAAAUCUGGGCCAGGCAGGCAUCAAAAGAAAUAGUCUUGCGCUCAACCAGAAAGUCUAUAAUCAUUUUAAGGGUA [U43C G123A] : is its self-cleavage no less than 1?
class 1

Quick check, self-cleavage >= 1? GUUAACGGUCAUAGGCCAUGGAAACUAGGAGCACCAUUUCGCUGCCAGUAAAGAAAUGAACAAAGAAAAUCUGGGCCAGGCAGGCAUCAAAAGAAAUAGUCUUGCGCUCAACCAGAAAGUCUGUAAUCAUUUUAAGGGUA [G50A]
class 1

Has GUUAACGGUCAUAGGCCAUGGAAACUAGGAGCACCAUUUCGCUGCCAGUGAAUAAAUGAACAAAGAAAAUCUGGGCCAGGCAGGCAUCAAAAGAAAUAGUCUUGCGCUCAACCUGAAAGUCUGUAAUCAUUUUAAGGGUA [G53U A114U] a recorded self-cleavage greater than or equal to 1?
class 0

Check the entry GUUAACGGUCAUAGGCCAUGGAAACUAGGAGCACCAUUUCGCUGCCAGUGAAGAAAUGAACAGAGCAAAUCUGGGCCAGGCAGGCAUCAAAAGAAAUAGUCUUGCGCUCAACCAGAAAGUCUGUAAUCAUUUUAAGGGUA [A63G A66C] : does self-cleavage equal or exceed 1?
class 0

Is self-cleavage at least 1? Consider GUUAACGGUCAUAGGCCAUGGAAACUAGGAGCACCAUUUCGCUGCCAGUGAAGAAAUGAACAAAGAAAAUCUGGGCCAGGCAGGCAUCAAAAGAAAUUGUCUUGCGCUCAACCAGAAAGUCUGUAAUCAUUUUAAGGGUA [A98U]
class 1

Please tell me: is the variant GUUAACGGUCUUAGGCCAUGGAAACUAGGAGCACCAUUUCGCUGCCAGUGAAGAAAUGAACAAAGAAAAUCUGGGCCCGGCAGGCAUCAAAAGAAAUAGUCUUGCGCUCAACCAGAAAGUCUGUAAUCAUUUUAAGGGUA [A11U A78C] at or over 1 in terms of self-cleavage?
class 0

Does GUUAACGGUCAUAGGCCAUGGAAACUAGGAGCACCAUUUCGCUGCCUGUGAAGAAAUGAACAAAGAAAAUCUGGGCCAGGCAGGCAUCAAAAGAAAUAGUCUUGCGCUCAACCAGAAAGUCUGCAAUCAUUUUAAGGGUA [A47U U124C] have a reported self-cleavage of at least 1?
class 0

Test whether the variant GUUAACGGUCAUAGGCCAUGGAAACUAGGAGCACCAUUUCGCUGCCAGUGAAGAAAUGAACAAAGAAAAUCUGGGCCAGGCAGGCGUCAAAAGAAUUAGUCUUGCGCUCAACCAGAAAGUCUGUAAUCAUUUUAAGGGUA [A86G A96U] records self-cleavage of 1 or higher.
class 1
